Where a name gives a salt, the structure may show the parent alone.
Attribute: melting point

The cases that follow already have their melting point on record.
                                   compound        readout          value
0  CC(C)(Cc1ccc(F)cc1)NCC(=O)N1CCC[C@H]1C#N (as salt: hydrochloride) [Ex. 2BB]  melting point  198 to 200 °C
1  CC(C)(CNc1cc(C(F)(F)F)ccn1)NCC(=O)N1CCC[C@H]1C#N [Ex. 2E]  melting point    38 to 40 °C

Turning to the following compound.
Value of measured melting point for the entry N#C[C@@H]1CCCN1C(=O)CN[C@H]1CC[C@H](NS(=O)(=O)c2cccs2)CC1 (as salt: hydrochloride) [Ex. 2AA] : 75 to 77 °C
